Where these numbers come from: patent US20250215029A1

For each of the compounds below, state its IC50.
target-of-assay: pY705-STAT3 in PBMC (Homo sapiens)
Construct: Cryopreserved Peripheral Blood Mononuclear Cells (PBMC) are from AllCells; host or cells: cryopreserved PBMC
test-name: MSD-pSTAT-PBMC Assay (pSTAT3, IL-6 stimulated)
Format: cell-based
setup-conditions: PBMC, compound 3 hrs, then 10 ng/mL IL-6 for 10 min; Table 1114; read-out: pSTAT3

Lookup: Determine its reported IC50: CC(C)(C)C(=O)SCCOP(=O)(Cc1ccc2sc(C(=O)N[C@H]3CCCC[C@H]4CC[C@@H](C(=O)N5C[C@@H](C#N)[C@H](c6ccccc6)C5)N4C3=O)cc2c1)OCCSC(=O)C(C)(C)C (single isomer, unassigned) [Compound 149]
Found: > 3000 nM

Lookup: Please supply the value of reported IC50 for the item CN(C)S(=O)(=O)N1CCN(C(=O)[C@@H]2CC[C@@H]3CCCC[C@H](NC(=O)c4cc5cc(C(F)(F)P(=O)(OCOC(=O)C(C)(C)C)OCOC(=O)C(C)(C)C)ccc5s4)C(=O)N32)CC1 [Compound 145]
Found: < 100 nM

Lookup: // fetch IC50 given entry CC(C)OC(=O)OCOP(=O)(OCOC(=O)OC(C)C)C(F)(F)c1ccc2sc(C(=O)N[C@H]3CCC[C@H]4CC[C@@H](C(=O)N5CC(c6cccnc6)C5)N4C3=O)cc2c1 [Compound 180]
Found: < 100 nM

Lookup: Please look at this compound and report its IC50: CC(C)(C)C(=O)SCCOP(=O)(OCCSC(=O)C(C)(C)C)C(F)(F)c1ccc2sc(C(=O)N[C@H]3CCCC[C@H]4CC[C@@H](C(=O)N5CC(c6cccnc6)C5)N4C3=O)cc2c1 [Compound 181]
Found: < 100 nM

Lookup: # return recorded IC50 for input CN(C(=O)[C@@H]1CC[C@@H]2CCCC[C@H](NC(=O)c3cc4cc(C(F)(F)P(=O)(OCOC(=O)C(C)(C)C)OCOC(=O)C(C)(C)C)ccc4[nH]3)C(=O)N21)c1ccccc1 [Compound 142]
Found: 100 to 1000 nM

---

I'd appreciate it if you could supply IC50 values for the items below.
target-of-assay: pY705-STAT3 in PBMC (Homo sapiens, UniProt P40763)
Construct: Cryopreserved Peripheral Blood Mononuclear Cells (PBMC) are from AllCells; host or cells: cryopreserved PBMC
Sequence (P40763 whole entry): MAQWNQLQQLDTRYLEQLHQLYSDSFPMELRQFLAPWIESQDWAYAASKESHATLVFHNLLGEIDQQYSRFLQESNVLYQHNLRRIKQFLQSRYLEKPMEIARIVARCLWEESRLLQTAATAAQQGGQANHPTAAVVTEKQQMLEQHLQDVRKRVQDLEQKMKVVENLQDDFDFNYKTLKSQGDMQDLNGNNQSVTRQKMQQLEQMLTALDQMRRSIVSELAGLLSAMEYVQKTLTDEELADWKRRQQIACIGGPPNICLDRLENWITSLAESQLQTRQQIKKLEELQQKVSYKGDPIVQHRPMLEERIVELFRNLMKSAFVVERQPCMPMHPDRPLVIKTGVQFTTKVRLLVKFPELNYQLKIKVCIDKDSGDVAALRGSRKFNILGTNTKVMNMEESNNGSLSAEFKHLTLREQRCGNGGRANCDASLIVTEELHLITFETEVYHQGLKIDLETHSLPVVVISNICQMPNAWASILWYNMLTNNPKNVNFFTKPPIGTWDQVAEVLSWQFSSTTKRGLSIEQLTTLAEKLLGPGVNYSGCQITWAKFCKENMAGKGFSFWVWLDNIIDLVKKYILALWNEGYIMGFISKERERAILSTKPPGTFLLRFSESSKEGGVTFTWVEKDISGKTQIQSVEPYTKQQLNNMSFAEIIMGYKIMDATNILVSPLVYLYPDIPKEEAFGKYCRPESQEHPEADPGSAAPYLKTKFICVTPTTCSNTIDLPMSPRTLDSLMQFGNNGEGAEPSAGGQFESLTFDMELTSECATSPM
test-name: MSD-pSTAT-PBMC Assay (pSTAT3, IL-6 stimulated)
Type: cell-based
setup-conditions: PBMC, compound 3 hrs, then 10 ng/mL IL-6 for 10 min; Table 115; read-out: STAT3

Lookup: Return value of IC50 for input CCCOC(=O)[C@H](C)N[P@](=O)(Oc1ccccc1)[C@H](F)c1ccc2sc(C(=O)N[C@H]3CCC[C@H]4CC[C@@H](C(=O)N5CC(c6cnccc6N6CCOCC6)C5)N4C3=O)cc2c1 (single isomer, unassigned) [Compound 1045] , no commentary.
Found: < 100 nM

Lookup: Respond only with IC50 recorded for COC[C@H](NP(=O)(Cc1ccc2sc(C(=O)N[C@H]3CCC[C@H]4CC[C@@H](C(=O)N5CC(c6cccnc6)C5)N4C3=O)cc2c1)Oc1ccccc1)C(=O)OC(C)C (some centres unmarked)
Found: 100 to 1000 nM

---

Give measured IC50 for each item. Keep answers brief.
target-of-assay: Recombinant STAT3 protein (STAT3 (G127-I722)) (Homo sapiens)
Construct: Recombinant STAT3 protein (STAT3 (G127-I722))
Sequence (P40763 127-722): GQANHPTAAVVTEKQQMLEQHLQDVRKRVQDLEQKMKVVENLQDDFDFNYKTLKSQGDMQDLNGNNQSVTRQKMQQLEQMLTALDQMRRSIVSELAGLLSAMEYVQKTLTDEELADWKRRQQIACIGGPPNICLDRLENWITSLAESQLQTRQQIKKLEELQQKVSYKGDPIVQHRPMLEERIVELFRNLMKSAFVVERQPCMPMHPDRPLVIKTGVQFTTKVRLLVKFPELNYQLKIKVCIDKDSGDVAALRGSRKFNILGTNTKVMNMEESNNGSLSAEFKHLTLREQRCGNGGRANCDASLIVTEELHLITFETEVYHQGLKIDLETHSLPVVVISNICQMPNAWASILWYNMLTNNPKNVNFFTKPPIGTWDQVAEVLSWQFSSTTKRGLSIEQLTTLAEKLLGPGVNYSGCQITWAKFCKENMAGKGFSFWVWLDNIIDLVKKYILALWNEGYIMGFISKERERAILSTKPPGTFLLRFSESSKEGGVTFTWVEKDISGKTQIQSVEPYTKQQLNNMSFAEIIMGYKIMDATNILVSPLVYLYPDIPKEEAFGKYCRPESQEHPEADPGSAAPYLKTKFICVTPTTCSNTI
test-name: STAT3 Fluorescence Polarization (FP) Assay
Format: binding
setup-conditions: STAT3 (G127-I722) 25 nM, probe 5-FAM-GpYLPQTV-NH2 2 nM, 45-minute incubation; read-out: STAT3 (FP assay IC50 class)

Lookup: Please report the measured IC50 for O=C(N[C@H]1CCCC[C@H]2CC[C@@H](C(=O)N3CCC(O)(c4cc[nH]c(=O)c4)C3)N2C1=O)c1cc2cc(C(F)(F)P(=O)(O)O)ccc2s1 (stereo partly drawn)
Found: 100 to 1000 nM

Lookup: Please give measured IC50 of the following entry: Cn1cc(C2CN(C(=O)[C@@H]3CC[C@@H]4CCC[C@H](NC(=O)c5cc6cc(C(F)(F)P(=O)(O)O)ccc6s5)C(=O)N43)CCO2)cn1 (stereo partly drawn)
Found: 1000 to 10000 nM

Lookup: Please give measured IC50 of the following entry: Cn1ccc(C2CCN(C(=O)[C@@H]3CC[C@@H]4CCCC[C@H](NC(=O)c5ccc6ccc(C(F)P(=O)(O)O)cc6c5)C(=O)N43)C2)cc1=O (stereo partly drawn)
Found: 1000 to 10000 nM

Lookup: Provide one value: measured IC50 of `Cc1ccncc1C1CN(C(=O)[C@@H]2CC[C@@H]3CCCC[C@H](NC(=O)c4cc5cc(C(F)(F)P(=O)(O)O)ccc5s4)C(=O)N32)C1`
Found: < 100 nM

Lookup: Query IC50 for `O=C(N[C@H]1CCCC[C@H]2CC[C@@H](C(=O)NCc3ccn4ccnc4c3)N2C1=O)c1cc2cc(C(F)(F)P(=O)(O)O)ccc2s1`
Found: < 100 nM

Lookup: Name the recorded IC50 of the molecule listed here: `C[C@H]1CC[C@H](NC(=O)c2cc3cc(CP(=O)(O)O)ccc3s2)C(=O)N2[C@H](CC[C@H]2C(=O)N2CC(c3cnccc3F)C2)C1`
Found: < 100 nM

Lookup: Please report the measured IC50 for O=C(N[C@H]1CCC[C@H]2CC[C@@H](C(=O)N[C@@H]3CC[C@@H](O)C3)N2C1=O)c1cc2cc(C(F)P(=O)(O)O)ccc2s1 (stereo partly drawn)
Found: 1000 to 10000 nM

Lookup: Answer with reported IC50 of Cn1cc(C2CN(C(=O)[C@@H]3CC[C@@H]4CCC[C@H](NC(=O)c5cc6cc(C(F)P(=O)(O)O)ccc6s5)C(=O)N43)C2)c(F)n1 (stereo partly drawn)
Found: 100 to 1000 nM

Lookup: Input O=C(N[C@H]1CCCC[C@H]2CC[C@@H](C(=O)N[C@@H]3CCN(C(=O)OC4CC4)C3)N2C1=O)c1cc2cc(C(F)P(=O)(O)O)ccc2s1 (stereo partly drawn) , output reported IC50.
Found: 1000 to 10000 nM

Lookup: Note IC50 for the molecule shown: `CN(C)c1ccncc1C1CN(C(=O)[C@@H]2CC[C@@H]3CCC[C@H](NC(=O)c4cc5cc(CP(=O)(O)O)ccc5s4)C(=O)N32)C1`
Found: < 100 nM

Lookup: Read the entry O=C(N[C@H]1CCC[C@H]2CC[C@@H](C(=O)N3CC(c4cscc4F)C3)N2C1=O)c1cc2cc(C(F)P(=O)(O)O)ccc2s1 (stereo partly drawn) and write its reported IC50.
Found: 100 to 1000 nM

Lookup: Report measured IC50; entry is O=C(N[C@H]1CCC[C@H]2CC[C@@H](C(=O)N3CC(c4cnccc4F)C3)N2C1=O)c1cc2cc([C@H](F)P(=O)(O)O)ccc2s1 (single isomer, unassigned)
Found: < 100 nM

Lookup: Please look at this molecule and report its IC50: N#C[C@@H]1[C@@H](c2ccccc2)CN(C(=O)[C@@H]2CC[C@@H]3C[C@@H](N4CCC4)CC[C@H](NC(=O)c4cc5cc([C@H](F)P(=O)(O)O)ccc5s4)C(=O)N32)C12CC2 (single isomer, unassigned)
Found: 1000 to 10000 nM

Lookup: Please give the documented IC50 of `O=C(N[C@H]1CCC[C@H]2CC[C@@H](C(=O)N3CC(c4cnccc4N4CC[C@@H](F)C4)C3)N2C1=O)c1cc2cc(CP(=O)(O)O)ccc2s1`
Found: < 100 nM

Lookup: Check the records and state IC50 for O=C(N[C@H]1CCC[C@H]2CC[C@@H](C(=O)N3CC(c4ccnc(O)n4)C3)N2C1=O)c1cc2cc(C(F)P(=O)(O)O)ccc2s1 (stereo partly drawn)
Found: < 100 nM

Lookup: Look up and state reported IC50 for N#C[C@H]1[C@H](c2ccccc2)CN(C(=O)[C@@H]2CC[C@@H]3CCCC[C@H](NC(=O)c4cc5cc([C@H](F)P(=O)(O)O)ccc5s4)C(=O)N32)C12CC2 (single isomer, unassigned)
Found: 1000 to 10000 nM

Lookup: Supply reported IC50 belonging to this molecule: `Cn1ccc(=O)c(C2CN(C(=O)[C@@H]3CC[C@@H]4CCC[C@H](NC(=O)c5cc6cc(CP(=O)(O)O)ccc6s5)C(=O)N43)C2)c1`
Found: 1000 to 10000 nM

Lookup: Entry `O=C(N[C@H]1CCCC[C@H]2CC[C@@H](C(=O)N3CC(c4cccnc4)C3)N2C1=O)c1cc2cc(CP(=O)(O)O)ccc2s1` needs its IC50 filled in; supply it.
Found: 100 to 1000 nM

Lookup: Provide measured IC50 value, entry: `O=C(N[C@H]1CCCC[C@H]2CC[C@@H](C(=O)N3C(=O)N(c4cccnc4)C(=O)C34CC4)N2C1=O)c1ccc2ccc(CP(=O)(O)O)cc2c1`
Found: 1000 to 10000 nM

Lookup: Identify measured IC50 associated with N#C[C@@H]1[C@@H](c2cccnc2)CN(C(=O)[C@@H]2CC[C@@H]3CCC[C@H](NC(=O)c4cc5cc([C@H](F)P(=O)(O)O)ccc5s4)C(=O)N32)C12CC2 (single isomer, unassigned)
Found: 1000 to 10000 nM

Lookup: Specify IC50 for N#CC1C(c2ccccc2)CN(C(=O)[C@@H]2CC[C@@H]3CCC[C@H](NC(=O)c4cc5cc([C@@H](F)P(=O)(O)O)ccc5s4)C(=O)N32)C12CC2 (stereo in doubt) and stop.
Found: 1000 to 10000 nM
